procedureSummary: Inhibition of chymotrypsin like activity of partially purified human proteasome
Format: subcellular
Okay, here is how we bin by IC50: Low (below 0.08 µM), Medium (0.08 µM to below 0.1 µM), High (0.1 µM or more)

Worked examples follow.
molSmiles	cat
COc1ccc(C[C@H](NC(=O)[C@@H](NC(=O)[C@H](Cc2ccc(OC)cc2)NC(=O)c2ncccc2O)C(C)C)B(O)O)cc1	High
COc1ccc(C[C@H](NC(=O)[C@@H](NC(=O)[C@H](Cc2ccc(OC)cc2)NC(=O)c2ncccc2F)C(C)C)B(O)O)cc1	High
COc1ccc(C[C@H](NC(=O)[C@@H](NC(=O)[C@H](Cc2ccc(OC)cc2)NC(=O)c2ccc(Cl)cn2)C(C)C)B(O)O)cc1	Medium

Field: class (IC50) — entry: COc1ccc(C[C@H](NC(=O)[C@@H](NC(=O)[C@H](Cc2ccc(OC)cc2)NC(=O)Cc2cccc(Oc3ccccc3)c2)C(C)C)B(O)O)cc1 Low

Same read-out for COc1ccc(C[C@H](NC(=O)[C@@H](NC(=O)[C@H](Cc2ccc(OC)cc2)NC(=O)c2ncccc2OC)C(C)C)B(O)O)cc1 ? High

Same read-out for COc1ccc(C[C@H](NC(=O)CNC(=O)[C@H](Cc2ccc(OC)cc2)NC(=O)c2ccccn2)B(O)O)cc1 ? High

Same read-out for COc1ccc(C[C@H](NC(=O)[C@@H](NC(=O)[C@H](Cc2ccc(OC)cc2)NC(=O)c2ccnc3ccccc23)C(C)C)B(O)O)cc1 ? Low

Same read-out for COc1ccc(C[C@H](NC(=O)[C@@H](NC(=O)[C@H](Cc2ccc(OC)cc2)NC(=O)c2cccc(O)n2)C(C)C)B(O)O)cc1 ? High

Same read-out for COc1ccc(C[C@H](NC(=O)[C@@H](NC(=O)[C@H](Cc2ccc(OC)cc2)NC(=O)c2cc(N(C)C)ccn2)C(C)C)B(O)O)cc1 ? High

###

procedureSummary: Inhibition of chymotrypsin like activity of partially purified human proteasome
Format: subcellular
resultType: pIC50
Remember the convention: pIC50 equals -log10 of concentration in molar.

The examples below pair each entry with its known result.
molSmiles	pIC50
COc1ccc(C[C@H](NC(=O)[C@@H](NC(=O)[C@H](Cc2ccc(OC)cc2)NC(=O)c2ncccc2C)C(C)C)B(O)O)cc1	7.07
COc1ccc(C[C@H](NC(=O)[C@@H](NC(=O)[C@H](Cc2ccc(OC)cc2)NC(=O)c2cc(OC)ccn2)C(C)C)B(O)O)cc1	7.06
COc1ccc(C[C@H](NC(=O)[C@@H](NC(=O)[C@H](Cc2ccc(OC)cc2)NC(=O)c2cccc(F)n2)C(C)C)B(O)O)cc1	6.96
COc1ccc(C[C@H](NC(=O)[C@H](C)NC(=O)[C@H](Cc2ccc(OC)cc2)NC(=O)c2ccccn2)B(O)O)cc1	6.96
COc1ccc(C[C@H](NC(=O)[C@@H](NC(=O)[C@H](Cc2ccc(OC)cc2)NC(=O)c2ccc(OC)cn2)C(C)C)B(O)O)cc1	7.03
COc1ccc(C[C@H](NC(=O)[C@@H](NC(=O)[C@H](Cc2ccc(OC)cc2)NC(=O)c2nc(Cl)ccc2Cl)C(C)C)B(O)O)cc1	7.28

Which pIC50 value belongs to COc1ccc(C[C@H](NC(=O)[C@@H](NC(=O)[C@H](Cc2ccc(OC)cc2)NC(=O)c2cccc(OC)n2)C(C)C)B(O)O)cc1 ? 7.23

Same read-out for COc1ccc(C[C@H](NC(=O)[C@@H](NC(=O)[C@H](Cc2ccc(OC)cc2)NC(=O)Cc2ccc3ccccc3n2)C(C)C)B(O)O)cc1 ? 7.00

Same read-out for COc1ccc(C[C@H](NC(=O)[C@@H](NC(=O)[C@H](Cc2ccc(OC)cc2)NC(=O)c2ccc(F)cn2)C(C)C)B(O)O)cc1 ? 7.09

These entries and their values trace back to ChEMBL document CHEMBL1255509.
